System: SK-MEL-2 melanoma
Test: NCI-60 one-dose screen, 48 h
Conditions: 10 µM unless noted
The panel holds about 83,000 compounds, 20% with a hit somewhere; the sample as a whole holds those more often. Calls of active or inactive are those of the source. Rule for the calls: active = growth percent below 10; inactive = the rest.
Returns: one label drawn from label 1 for active, label 0 for inactive

Solved cases below.
In: Give the logged outcome of this assay for the following compound: O=C(CSc1nc2ccccc2c(=O)n1-c1ccccc1)N/N=C/c1ccc(Oc2ccc(Br)cc2)cc1
Out: label 0

In: Give the logged outcome of this assay for the following compound: COC(=O)[C@@H](Cc1c[nH]c2ccccc12)NC(=O)CCCCOc1cc(O)c2c(=O)cc(-c3ccccc3)oc2c1
Out: label 0

In: Give the logged outcome of this assay for the following compound: CN(C)c1cccc2c(S(=O)(=O)Nc3cccc(-c4csc(NC(=O)CCCCCN5CCN(CCO)CC5)n4)c3)cccc12
Out: label 0

Next:
In: Give the logged outcome of this assay for the following compound: O=C(O)c1ccc(-n2c(=O)n(-c3cccc(C(F)(F)F)c3)c(=O)c3cc(-c4ccc(F)cc4F)ccc32)cc1
Out: label 1

In: Give the logged outcome of this assay for the following compound: C[C@H]1OCC2(CCN(c3cnc(C(=O)Nc4cc(F)cc5cccnc45)cn3)CC2)[C@H]1N
Out: label 0

In: Give the logged outcome of this assay for the following compound: NC(=S)n1c(=O)n(-c2cccc(C(F)(F)F)c2)c(=O)c2cc(-c3ccc(F)cc3F)ccc21
Out: label 1

In: Give the logged outcome of this assay for the following compound: O=C(CSc1nnc(-c2cccs2)n1-c1ccccc1)Nc1ccccc1F
Out: label 0

In: Give the logged outcome of this assay for the following compound: Brc1cc(-c2cc(-c3ccc4c(c3)OCCO4)[nH]n2)cs1
Out: label 0

In: Give the logged outcome of this assay for the following compound: CCc1cccc2c3c(sc12)C(c1ccc(F)cc1)C(C#N)=C(/N=C/c1ccc(Cl)cc1)O3 (stereo not drawn)
Out: label 1

In: Give the logged outcome of this assay for the following compound: COc1ccc2[nH]cc(-c3nn4cc(-c5ccncc5)nc4s3)c2c1
Out: label 0

In: Give the logged outcome of this assay for the following compound: O=C(CCCCCCNC(=O)C(O)(O)C(F)(F)F)Nc1ncc(-c2ccccc2)s1
Out: label 1

###

Test system: SR leukemia
Assay: NCI-60 one-dose screen, 48 h (100 = growth as untreated, 0 = no growth, -100 = all killed)
Conditions: 10 µM unless noted
This is part of a sample that, as a whole, favours compounds with a hit. Of some 83,000 tested, about 20% had one in any assay.
Would you please tag the item yes (1) when its growth is 10% or above, and no (0) when it is below?

Solved cases below.
In: Reported growth at or above 10%? O=C(Nc1cccc(Cl)c1)Nc1nc2cc([N+](=O)[O-])ccc2o1
Out: yes (1)

In: Reported growth at or above 10%? COc1ccc(/C=N/NC(=O)CSc2nc(-c3cnccn3)cc(-c3cccs3)c2C#N)cc1OC
Out: yes (1)

In: Reported growth at or above 10%? Cc1ccc(N2CCN(C3=C(Cl)C(=O)c4ncccc4C3=O)CC2)cc1
Out: no (0)

Next:
In: Reported growth at or above 10%? O=C(CCCCCCNC(=O)C(O)(O)C(F)(F)F)Nc1ncc(-c2ccccc2)s1
Out: yes (1)

In: Reported growth at or above 10%? Cc1ccc(C(=O)CSc2nc3ccccc3c(=O)n2C)cc1
Out: yes (1)
